target: UniProtKB Q96SW2; test: Cereblon (CRBN) target engagement, NanoBRET TE Intracellular E3 Ligase Assay in transfected HEK-293T cells; conditions: second (untitled) table after Table 3, read-out: CRBN Binding EC50
Readout Kind: EC50 (nM)

Molecule	Readout Unit	Experimental Result
O=C1NC(=O)C2(N3Cc4cc(O[C@H]5CCCC[C@@H]5N5CC(C6CCC(F)(F)CC6)C5)ccc4C3=O)CC1C2 [Compound 15]	nM	6210
O=C1CCC(N2Cc3cc(O[C@H]4CCCC[C@@H]4N4CC(C5CC5)C4)c(F)cc3C2=O)C(=O)N1 (some centres unmarked) [Compound 26]	nM	16
O=C1CCC(N2Cc3cc(O[C@H]4CCC[C@@H]4N4CC(C5CC5)C4)ccc3C2=O)C(=O)N1 (some centres unmarked) [Compound 22]	nM	22
CC(C)OC1CCC(C2CN([C@H]3CCCC[C@@H]3Oc3ccc4c(c3)CN(C3CCC(=O)NC3=O)C4=O)C2)CC1 (some centres unmarked) [Compound 17]	nM	1
O=C1CCC(N2Cc3c(ccc(O[C@H]4CCCC[C@@H]4N4CC(C5CCC5)C4)c3F)C2=O)C(=O)N1 (some centres unmarked) [Compound 25]	nM	28

I = O=C1CCC(N2Cc3cc(O[C@H]4CCCC[C@@H]4N4CC(C5CC(F)(F)C5)C4)ccc3C2=O)C(=O)N1 (some centres unmarked) [Compound 18]
II = CC(C)OC1CCC(C2CN([C@H]3CCCC[C@@H]3Oc3ccc4c(c3)CN(C3CCC(=O)NC3=O)C4=O)C2)CC1 (some centres unmarked) [Compound 16]
Asked: Smaller EC50 value, I vs II ? Pick one and reply with its label.
Given back: II

P = O=C1CCC(N2Cc3cc(O[C@H]4CCCC[C@@H]4N4CC(C5CCC5)C4)ccc3C2=O)C(=O)N1 (some centres unmarked) [Compound 5]
Q = O=C1CCC(N2Cc3cc(O[C@H]4CCCC[C@@H]4N4CC(C5CCC5)C4)c(F)cc3C2=O)C(=O)N1 (some centres unmarked) [Compound 27]
R = O=C1CCC(N2Cc3cc(O[C@H]4CCCC[C@@H]4N4CC(C5CCCC5)C4)ccc3C2=O)C(=O)N1 (some centres unmarked) [Compound 6]
Asked: Write the entries in order, lowest recorded EC50 first. Thanks in advance for listing the labels in the requested order.
Given back: R, P, Q

1 = O=C1CCC(N2Cc3cc(O[C@H]4CCCC[C@@H]4N4CC(C5CC5)C4)ccc3C2=O)C(=O)N1 (some centres unmarked) [Compound 3]
2 = O=C1CCC(N2Cc3c(ccc(O[C@H]4CCCC[C@@H]4N4CC(C5CC5)C4)c3F)C2=O)C(=O)N1 (some centres unmarked) [Compound 24]
Asked: Smaller EC50 value, 1 vs 2 ? Pick one and reply with its label.
Given back: 1

====

target: IKZF2 (Helios) (Homo sapiens (Human), UniProt Q96SW2+Q9UKS7); assay: IKZF2 reporter degradation assay (HEK 293T IKZF2-mNeonGreen reporter cell line); format: cell-based; conditions: HEK-293T, 24 h, second (untitled) table after Table 3; 1 μM, 24 hour incubation
Sequence (Q9UKS7 whole entry): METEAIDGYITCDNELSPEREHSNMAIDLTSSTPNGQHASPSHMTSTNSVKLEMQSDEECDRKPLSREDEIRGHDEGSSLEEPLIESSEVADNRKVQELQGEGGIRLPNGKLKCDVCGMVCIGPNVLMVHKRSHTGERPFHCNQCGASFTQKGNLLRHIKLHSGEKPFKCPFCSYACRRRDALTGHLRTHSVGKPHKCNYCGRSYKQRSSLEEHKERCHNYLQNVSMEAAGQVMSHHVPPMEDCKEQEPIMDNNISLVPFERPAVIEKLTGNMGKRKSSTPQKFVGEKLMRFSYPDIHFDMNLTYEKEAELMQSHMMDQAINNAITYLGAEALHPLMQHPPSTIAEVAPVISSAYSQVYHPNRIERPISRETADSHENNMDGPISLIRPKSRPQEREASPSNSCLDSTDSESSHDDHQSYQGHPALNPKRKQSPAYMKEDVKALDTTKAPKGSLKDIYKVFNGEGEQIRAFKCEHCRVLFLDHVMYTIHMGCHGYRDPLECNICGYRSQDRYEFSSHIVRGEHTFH
Sequence (Q96SW2 whole entry): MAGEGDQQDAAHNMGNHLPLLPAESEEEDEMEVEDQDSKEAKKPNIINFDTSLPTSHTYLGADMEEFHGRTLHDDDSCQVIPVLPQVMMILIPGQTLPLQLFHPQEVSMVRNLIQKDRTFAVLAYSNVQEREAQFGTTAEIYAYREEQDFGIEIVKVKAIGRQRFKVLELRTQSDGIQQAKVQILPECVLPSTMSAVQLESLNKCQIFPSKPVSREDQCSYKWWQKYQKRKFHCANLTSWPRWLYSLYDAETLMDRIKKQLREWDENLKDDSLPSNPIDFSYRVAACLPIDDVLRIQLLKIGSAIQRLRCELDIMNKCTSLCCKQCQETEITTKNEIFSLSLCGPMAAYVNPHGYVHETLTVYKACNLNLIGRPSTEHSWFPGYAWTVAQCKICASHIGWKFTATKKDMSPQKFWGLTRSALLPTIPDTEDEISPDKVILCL
Sequence (Q16531 whole entry partner): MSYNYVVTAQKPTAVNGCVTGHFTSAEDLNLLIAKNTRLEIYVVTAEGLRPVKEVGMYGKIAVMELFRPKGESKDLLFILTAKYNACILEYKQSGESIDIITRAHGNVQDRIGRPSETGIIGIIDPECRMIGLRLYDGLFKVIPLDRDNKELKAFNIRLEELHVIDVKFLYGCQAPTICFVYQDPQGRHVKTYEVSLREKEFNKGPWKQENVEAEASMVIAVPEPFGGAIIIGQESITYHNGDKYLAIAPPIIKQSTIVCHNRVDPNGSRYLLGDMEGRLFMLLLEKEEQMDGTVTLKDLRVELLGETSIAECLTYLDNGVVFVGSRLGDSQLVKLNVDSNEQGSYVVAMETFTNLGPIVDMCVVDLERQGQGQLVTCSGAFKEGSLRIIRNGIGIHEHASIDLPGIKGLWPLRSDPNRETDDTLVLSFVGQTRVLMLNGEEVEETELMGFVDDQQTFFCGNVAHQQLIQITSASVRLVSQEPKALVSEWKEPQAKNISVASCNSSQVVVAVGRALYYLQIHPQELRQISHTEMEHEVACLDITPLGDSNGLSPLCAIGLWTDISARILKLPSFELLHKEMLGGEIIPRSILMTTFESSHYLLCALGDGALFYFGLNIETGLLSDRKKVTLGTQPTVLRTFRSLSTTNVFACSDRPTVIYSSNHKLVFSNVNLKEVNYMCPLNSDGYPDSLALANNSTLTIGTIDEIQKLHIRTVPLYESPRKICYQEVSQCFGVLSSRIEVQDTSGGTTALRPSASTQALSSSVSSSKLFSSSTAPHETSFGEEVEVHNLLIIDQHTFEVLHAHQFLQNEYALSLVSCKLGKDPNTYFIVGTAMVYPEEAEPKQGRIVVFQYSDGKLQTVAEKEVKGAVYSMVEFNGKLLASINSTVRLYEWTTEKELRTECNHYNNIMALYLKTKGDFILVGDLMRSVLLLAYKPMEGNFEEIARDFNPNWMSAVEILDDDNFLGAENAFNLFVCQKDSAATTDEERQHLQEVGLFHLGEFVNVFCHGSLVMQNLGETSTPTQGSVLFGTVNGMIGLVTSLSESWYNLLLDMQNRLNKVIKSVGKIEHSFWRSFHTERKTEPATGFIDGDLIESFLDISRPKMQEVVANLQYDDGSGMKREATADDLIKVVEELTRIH
Readout Kind: inhibition at 1 µM (%)

Molecule	Tgt	Experimental Result
O=C1CCC(N2Cc3cc(O[C@H]4CCCC[C@@H]4N4CC(C5CCC(F)(F)CC5)C4)ccc3C2=O)C(=O)N1 (stereo partly shown) [Compound 2]	IKZF2 (Helios) (Homo sapiens (Human), UniProt Q96SW2+Q9UKS7)	74.6
CCOC1CCC(C2CN([C@H]3CCCC[C@@H]3Oc3ccc4c(c3)CN(C3CCC(=O)NC3=O)C4=O)C2)CC1 (stereo partly shown) [Compound 19]	IKZF2 (Helios) (Homo sapiens (Human), UniProt Q96SW2+Q9UKS7)	72.8
O=C1CCC(N2Cc3cc(O[C@H]4CCCC[C@@H]4N4CC(C5CCC(OC(F)F)CC5)C4)ccc3C2=O)C(=O)N1 (stereo partly shown) [Compound 21]	IKZF2 (Helios) (Homo sapiens (Human), UniProt Q96SW2+Q9UKS7)	86.7
N#CC1(C2CN([C@H]3CCCC[C@@H]3Oc3ccc4c(c3)CN(C3CCC(=O)NC3=O)C4=O)C2)CCC1 (stereo partly shown) [Compound 23]	IKZF2 (Helios) (Homo sapiens (Human), UniProt Q96SW2+Q9UKS7)	87.4
O=C1CCC(N2Cc3cc(O[C@H]4CCC[C@@H]4N4CC(C5CC5)C4)ccc3C2=O)C(=O)N1 (stereo partly shown) [Compound 22]	IKZF2 (Helios) (Homo sapiens (Human), UniProt Q96SW2+Q9UKS7)	82.6
O=C1CCC(N2Cc3cc(O[C@H]4CCCC[C@@H]4N4CC(C5CCCC(F)(F)C5)C4)ccc3C2=O)C(=O)N1 (stereo partly shown) [Compound 20]	IKZF2 (Helios) (Homo sapiens (Human), UniProt Q96SW2+Q9UKS7)	85
O=C1CCC(N2Cc3cc(O[C@H]4CCCC[C@@H]4N4CC(C5CCC5)C4)ccc3C2=O)C(=O)N1 (stereo partly shown) [Compound 5]	IKZF2 (Helios) (Homo sapiens (Human), UniProt Q96SW2+Q9UKS7)	85
O=C1CCC(N2Cc3cc(O[C@H]4CCCC[C@@H]4N4CC(C5CC5)C4)ccc3C2=O)C(=O)N1 (stereo partly shown) [Compound 3]	IKZF2 (Helios) (Homo sapiens (Human), UniProt Q96SW2+Q9UKS7)	67.7
O=C1CCC(N2Cc3c(ccc(O[C@H]4CCCC[C@@H]4N4CC(C5CC5)C4)c3F)C2=O)C(=O)N1 (stereo partly shown) [Compound 24]	IKZF2 (Helios) (Homo sapiens (Human), UniProt Q96SW2+Q9UKS7)	85.8
O=C1CCC(N2Cc3cc(O[C@H]4CCCC[C@@H]4N4CC(C5CC5)C4)c(F)cc3C2=O)C(=O)N1 (stereo partly shown) [Compound 26]	IKZF2 (Helios) (Homo sapiens (Human), UniProt Q96SW2+Q9UKS7)	77.8
COC1CCC(C2CN([C@H]3CCC[C@@H]3Oc3ccc4c(c3)CN(C3CCC(=O)NC3=O)C4=O)C2)CC1 (stereo partly shown) [Compound 9]	IKZF2 (Helios) (Homo sapiens (Human), UniProt Q96SW2+Q9UKS7)	77.7
O=C1CCC(N2Cc3cc(O[C@H]4CCCC[C@@H]4N4CC(C5CCCCC5)C4)ccc3C2=O)C(=O)N1 (stereo partly shown) [Compound 1]	IKZF2 (Helios) (Homo sapiens (Human), UniProt Q96SW2+Q9UKS7)	85.1
O=C1CCC(N2Cc3cc(O[C@H]4CCCC[C@@H]4N4CC(C5CCCC5)C4)ccc3C2=O)C(=O)N1 (stereo partly shown) [Compound 6]	IKZF2 (Helios) (Homo sapiens (Human), UniProt Q96SW2+Q9UKS7)	86.3
O=C1CCC(N2Cc3cc(O[C@H]4CCCC[C@@H]4N4CC(C5CC(F)(F)C5)C4)ccc3C2=O)C(=O)N1 (stereo partly shown) [Compound 18]	IKZF2 (Helios) (Homo sapiens (Human), UniProt Q96SW2+Q9UKS7)	95.8
COC1CCC(C2CN([C@H]3CCCC[C@@H]3Oc3ccc4c(c3)CN(C3CCC(=O)NC3=O)C4=O)C2)CC1 (stereo partly shown) [Compound 8]	IKZF2 (Helios) (Homo sapiens (Human), UniProt Q96SW2+Q9UKS7)	80.1
O=C1CCC(N2Cc3c(ccc(O[C@H]4CCCC[C@@H]4N4CC(C5CCC5)C4)c3F)C2=O)C(=O)N1 (stereo partly shown) [Compound 25]	IKZF2 (Helios) (Homo sapiens (Human), UniProt Q96SW2+Q9UKS7)	86.7
O=C1CCC(N2Cc3cc(O[C@H]4CCC[C@@H]4N4CC(C5CCC(F)(F)CC5)C4)ccc3C2=O)C(=O)N1 (stereo partly shown) [Compound 13]	IKZF2 (Helios) (Homo sapiens (Human), UniProt Q96SW2+Q9UKS7)	75.9
CC(C)OC1CCC(C2CN([C@H]3CCCC[C@@H]3Oc3ccc4c(c3)CN(C3CCC(=O)NC3=O)C4=O)C2)CC1 (stereo partly shown) [Compound 16]	IKZF2 (Helios) (Homo sapiens (Human), UniProt Q96SW2+Q9UKS7)	95.5
O=C1CCC(N2Cc3cc(O[C@H]4CCCC[C@@H]4N4CC(C5CCC5)C4)c(F)cc3C2=O)C(=O)N1 (stereo partly shown) [Compound 27]	IKZF2 (Helios) (Homo sapiens (Human), UniProt Q96SW2+Q9UKS7)	84.1

====

biological target: human E3 ligase component cereblon (CRBN) (Homo sapiens (Human)); experiment: Cereblon (CRBN) target engagement, NanoBRET TE Intracellular E3 Ligase Assay in transfected HEK-293T cells; details: Table 3, 2 hours at 37° C., read-out: CRBN Binding EC50
Sequence (Q96SW2 whole entry): as the sequence (Q96SW2 whole entry) above
Sequence (Q16531 whole entry partner): as the sequence (Q16531 whole entry partner) above
pEC50: −log10 of the molar value.
Readout Kind: pEC50

Some entries whose results are on file:
Compound	Tgt	Readout Kind	Experimental Result
O=C1CCC(N2Cc3cc(O[C@H]4CCCC[C@@H]4N4CC(C5CCC5)C4)ccc3C2=O)C(=O)N1 (stereo partly shown) [Compound 5]	human E3 ligase component cereblon (CRBN) (Homo sapiens (Human))	pEC50	8.05
O=C1CCC(N2Cc3cc(O[C@H]4CCCC[C@@H]4N4CC(C5CCC5)C4)c(F)cc3C2=O)C(=O)N1 (stereo partly shown) [Compound 27]	human E3 ligase component cereblon (CRBN) (Homo sapiens (Human))	pEC50	7.74
O=C1CCC(N2Cc3cc(O[C@H]4CCCC[C@@H]4N4CC(C5CC(F)(F)C5)C4)ccc3C2=O)C(=O)N1 (stereo partly shown) [Compound 18]	human E3 ligase component cereblon (CRBN) (Homo sapiens (Human))	pEC50	7.92
CC(C)OC1CCC(C2CN([C@H]3CCCC[C@@H]3Oc3ccc4c(c3)CN(C3CCC(=O)NC3=O)C4=O)C2)CC1 (stereo partly shown) [Compound 17]	human E3 ligase component cereblon (CRBN) (Homo sapiens (Human))	pEC50	9.00

P = O=C1CCC(N2Cc3cc(O[C@H]4CCCC[C@@H]4N4CC(C5CCC(F)(F)CC5)C4)ccc3C2=O)C(=O)N1 (stereo partly shown) [Compound 2]
Q = O=C1CCC(N2Cc3cc(O[C@H]4CCCC[C@@H]4N4CC(C5CC5)C4)c(F)cc3C2=O)C(=O)N1 (stereo partly shown) [Compound 26]
Asked: I'd appreciate it if you could identify which of P and Q has the greater pEC50. Pick one and reply with its label.
Given back: P
(P: 8.70, Q: 7.80)
